target: Gonadotropin-releasing hormone receptor (Homo sapiens, UniProt P30968, F272L); experiment: Displacement of [125I]-His5, D-Tyr6]GnRH from GnRHR F272L mutant expressed in COS7 cells
pIC50: −log10 of the molar value.
quantity: pIC50

P = CN(CCc1ccccc1)Cc1c(-c2ccc([N+](=O)[O-])cc2)sc2c1c(=O)n(-c1ccccc1)c(=O)n2Cc1c(F)cccc1F
Q = CN(Cc1ccccc1)Cc1c(-c2ccc(NC(=O)NCc3ccccc3)cc2)sc2c1c(=O)n(-c1ccccc1)c(=O)n2Cc1c(F)cccc1F
R = CN(Cc1ccccc1)Cc1c(-c2ccc([N+](=O)[O-])cc2)sc2c1c(=O)n(-c1ccccc1)c(=O)n2Cc1c(F)cccc1F
S = CN(Cc1ccccc1)Cc1c(-c2ccc(NC3=NCCN3)cc2)sc2c1c(=O)n(-c1ccccc1)c(=O)n2Cc1c(F)cccc1F
Prompt: Take the compounds listed above and rank them by pIC50; the top slot goes to the highest value. Could you list the labels in the order requested?
Completion: Q, S, R, P

###

target: Gonadotropin-releasing hormone receptor (Homo sapiens, UniProt P30968, N27A); test: Displacement of [His5, D-Tyr6]GnRH from GnRHR N27A mutant expressed in COS7 cells
Sequence (P30968 whole entry N27A): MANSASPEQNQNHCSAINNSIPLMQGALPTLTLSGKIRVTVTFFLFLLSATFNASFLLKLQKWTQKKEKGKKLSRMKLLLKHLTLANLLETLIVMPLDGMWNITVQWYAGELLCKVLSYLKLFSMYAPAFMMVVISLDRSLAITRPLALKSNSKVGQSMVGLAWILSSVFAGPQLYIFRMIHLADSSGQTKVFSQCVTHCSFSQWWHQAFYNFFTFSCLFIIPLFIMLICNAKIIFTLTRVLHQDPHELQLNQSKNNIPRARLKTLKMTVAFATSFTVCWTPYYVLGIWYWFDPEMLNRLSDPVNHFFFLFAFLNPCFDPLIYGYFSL
quantity: IC50 (nM)

- smiles.string: "CN(Cc1ccccc1)Cc1c(-c2ccc(NC3=NCCN3)cc2)sc2c1c(=O)n(-c1ccccc1)c(=O)n2Cc1c(F)cccc1F"
  IC50 (nM): 480
- smiles.string: "CC(=O)Nc1ccc(-c2sc3c(c2CN(C)Cc2ccccc2)c(=O)n(-c2ccccc2)c(=O)n3Cc2c(F)cccc2F)cc1"
  IC50 (nM): 31
- smiles.string: "CN(Cc1ccccc1)Cc1c(-c2ccc(NC(=O)c3ccccc3)cc2)sc2c1c(=O)n(-c1ccccc1)c(=O)n2Cc1c(F)cccc1F"
  IC50 (nM): 26
- smiles.string: "CN(Cc1ccccc1)Cc1c(-c2ccc([N+](=O)[O-])cc2)sc2c1c(=O)n(-c1ccccc1)c(=O)n2Cc1c(F)cccc1F"
  IC50 (nM): 1600

P = CN(CCc1ccccc1)Cc1c(-c2ccc([N+](=O)[O-])cc2)sc2c1c(=O)n(-c1ccccc1)c(=O)n2Cc1c(F)cccc1F
Q = CN(Cc1ccccc1)Cc1c(-c2ccc(N)cc2)sc2c1c(=O)n(-c1ccccc1)c(=O)n2Cc1c(F)cccc1F
R = CN(Cc1ccccc1)Cc1c(-c2ccc(NC(=O)NCc3ccccc3)cc2)sc2c1c(=O)n(-c1ccccc1)c(=O)n2Cc1c(F)cccc1F
S = CN(CCc1ccccn1)Cc1c(-c2ccc([N+](=O)[O-])cc2)sc2c1c(=O)n(-c1ccccc1)c(=O)n2Cc1c(F)cccc1F
Prompt: Hi! Can you put these in order of IC50, lowest number first? Could you list the labels in the order requested?
Completion: R, S, Q, P
(R: 30 nM, S: 200 nM, Q: 370 nM, P: 1300 nM)

###

molecular target: Gonadotropin-releasing hormone receptor (Homo sapiens, UniProt P30968, F272L); assay: Displacement of [125I]-His5, D-Tyr6]GnRH from GnRHR F272L mutant expressed in COS7 cells
quantity: IC50 (nM)

A = CN(CCc1ccccn1)Cc1c(-c2ccc([N+](=O)[O-])cc2)sc2c1c(=O)n(-c1ccccc1)c(=O)n2Cc1c(F)cccc1F
B = CN(Cc1ccccc1)Cc1c(-c2ccc(N)cc2)sc2c1c(=O)n(-c1ccccc1)c(=O)n2Cc1c(F)cccc1F
C = CN(Cc1ccccc1)Cc1c(-c2ccc(NC(=O)c3ccccc3)cc2)sc2c1c(=O)n(-c1ccccc1)c(=O)n2Cc1c(F)cccc1F
D = CC(=O)Nc1ccc(-c2sc3c(c2CN(C)Cc2ccccc2)c(=O)n(-c2ccccc2)c(=O)n3Cc2c(F)cccc2F)cc1
Prompt: Take the compounds listed above and rank them by IC50; the top slot goes to the highest value. Could you list the labels in the order requested?
Completion: B, A, D, C

###

biological target: Gonadotropin-releasing hormone receptor (Homo sapiens, UniProt P30968, F309Q); experiment: Displacement of [His5, D-Tyr6]GnRH from GnRHR F309Q mutant expressed in COS7 cells
quantity: IC50 (µM)

A = CN(Cc1ccccc1)Cc1c(-c2ccc(NC3=NCCN3)cc2)sc2c1c(=O)n(-c1ccccc1)c(=O)n2Cc1c(F)cccc1F
B = CN(CCc1ccccn1)Cc1c(-c2ccc([N+](=O)[O-])cc2)sc2c1c(=O)n(-c1ccccc1)c(=O)n2Cc1c(F)cccc1F
C = CC(=O)Nc1ccc(-c2sc3c(c2CN(C)Cc2ccccc2)c(=O)n(-c2ccccc2)c(=O)n3Cc2c(F)cccc2F)cc1
Prompt: Sort by IC50 with smallest numbers at the start of the list. Could you list the labels in the order requested?
Completion: C, B, A

###

molecular target: Gonadotropin-releasing hormone receptor (Homo sapiens, UniProt P30968, Q208E); assay: Displacement of [His5, D-Tyr6]GnRH from GnRHR Q208E mutant expressed in COS7 cells; assay type: cell-based, COS-7
Sequence (P30968 whole entry Q208E): as the sequence (P30968 whole entry N27A) above, with A27N, Q208E counted along it
quantity: IC50 (nM)

Reference set (3 entries):
- smiles.string: "CN(Cc1ccccc1)Cc1c(-c2ccc(NC3=NCCN3)cc2)sc2c1c(=O)n(-c1ccccc1)c(=O)n2Cc1c(F)cccc1F"
  quantity: "IC50"
  recorded.number: 1400
- smiles.string: "CN(Cc1ccccc1)Cc1c(-c2ccc(NC(=O)c3ccccc3)cc2)sc2c1c(=O)n(-c1ccccc1)c(=O)n2Cc1c(F)cccc1F"
  quantity: "IC50"
  recorded.number: 31
- smiles.string: "CN(Cc1ccccc1)Cc1c(-c2ccc(NC(=O)NCc3ccccc3)cc2)sc2c1c(=O)n(-c1ccccc1)c(=O)n2Cc1c(F)cccc1F"
  quantity: "IC50"
  recorded.number: 70

1 = CN(Cc1ccccc1)Cc1c(-c2ccc(N)cc2)sc2c1c(=O)n(-c1ccccc1)c(=O)n2Cc1c(F)cccc1F
2 = CN(CCc1ccccn1)Cc1c(-c2ccc([N+](=O)[O-])cc2)sc2c1c(=O)n(-c1ccccc1)c(=O)n2Cc1c(F)cccc1F
3 = CN(CCc1ccccc1)Cc1c(-c2ccc([N+](=O)[O-])cc2)sc2c1c(=O)n(-c1ccccc1)c(=O)n2Cc1c(F)cccc1F
4 = CC(=O)Nc1ccc(-c2sc3c(c2CN(C)Cc2ccccc2)c(=O)n(-c2ccccc2)c(=O)n3Cc2c(F)cccc2F)cc1
Prompt: Highest IC50 first, then in falling order down to the smallest. Could you list the labels in the order requested?
Completion: 3, 1, 2, 4

###

target: Gonadotropin-releasing hormone receptor (Homo sapiens, UniProt P30968, F309L); assay: Displacement of [His5, D-Tyr6]GnRH from GnRHR F309L mutant expressed in COS-7 cells
quantity: IC50 (nM)

Reference set (4 entries):
- smiles.string: "CN(Cc1ccccc1)Cc1c(-c2ccc(N)cc2)sc2c1c(=O)n(-c1ccccc1)c(=O)n2Cc1c(F)cccc1F"
  units.label: "nM"
  IC50: 950
- smiles.string: "CC(=O)Nc1ccc(-c2sc3c(c2CN(C)Cc2ccccc2)c(=O)n(-c2ccccc2)c(=O)n3Cc2c(F)cccc2F)cc1"
  units.label: "nM"
  IC50: 1100
- smiles.string: "CN(Cc1ccccc1)Cc1c(-c2ccc(NC(=O)c3ccccc3)cc2)sc2c1c(=O)n(-c1ccccc1)c(=O)n2Cc1c(F)cccc1F"
  units.label: "nM"
  IC50: 100
- smiles.string: "CN(Cc1ccccc1)Cc1c(-c2ccc(NC(=O)NCc3ccccc3)cc2)sc2c1c(=O)n(-c1ccccc1)c(=O)n2Cc1c(F)cccc1F"
  units.label: "nM"
  IC50: 900

a = CN(Cc1ccccc1)Cc1c(-c2ccc(NC3=NCCN3)cc2)sc2c1c(=O)n(-c1ccccc1)c(=O)n2Cc1c(F)cccc1F
b = CN(CCc1ccccn1)Cc1c(-c2ccc([N+](=O)[O-])cc2)sc2c1c(=O)n(-c1ccccc1)c(=O)n2Cc1c(F)cccc1F
Prompt: Which record shows the lower IC50: the first, a , or the second, b ? Indicate your choice by writing its label.
Completion: a

###

target: Gonadotropin-releasing hormone receptor (Homo sapiens, UniProt P30968, L300A); assay: Displacement of [His5, D-Tyr6]GnRH from GnRHR L300A mutant expressed in COS7 cells
Sequence (P30968 whole entry L300A): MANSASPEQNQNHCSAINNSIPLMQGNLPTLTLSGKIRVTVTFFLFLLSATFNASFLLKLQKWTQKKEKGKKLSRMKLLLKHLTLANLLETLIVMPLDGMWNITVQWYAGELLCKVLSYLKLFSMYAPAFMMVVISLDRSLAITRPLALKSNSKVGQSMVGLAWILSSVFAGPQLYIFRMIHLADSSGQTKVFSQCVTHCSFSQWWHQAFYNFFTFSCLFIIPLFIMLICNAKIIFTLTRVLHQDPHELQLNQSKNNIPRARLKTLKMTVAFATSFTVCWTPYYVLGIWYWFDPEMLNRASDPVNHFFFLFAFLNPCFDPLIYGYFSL
quantity: IC50 (nM)

- smiles.string: "CN(Cc1ccccc1)Cc1c(-c2ccc(NC(=O)NCc3ccccc3)cc2)sc2c1c(=O)n(-c1ccccc1)c(=O)n2Cc1c(F)cccc1F"
  IC50 [nM]: 190

a = CN(CCc1ccccn1)Cc1c(-c2ccc([N+](=O)[O-])cc2)sc2c1c(=O)n(-c1ccccc1)c(=O)n2Cc1c(F)cccc1F
b = CN(Cc1ccccc1)Cc1c(-c2ccc(NC3=NCCN3)cc2)sc2c1c(=O)n(-c1ccccc1)c(=O)n2Cc1c(F)cccc1F
c = CN(Cc1ccccc1)Cc1c(-c2ccc(NC(=O)c3ccccc3)cc2)sc2c1c(=O)n(-c1ccccc1)c(=O)n2Cc1c(F)cccc1F
d = CC(=O)Nc1ccc(-c2sc3c(c2CN(C)Cc2ccccc2)c(=O)n(-c2ccccc2)c(=O)n3Cc2c(F)cccc2F)cc1
e = CN(Cc1ccccc1)Cc1c(-c2ccc(N)cc2)sc2c1c(=O)n(-c1ccccc1)c(=O)n2Cc1c(F)cccc1F
Prompt: Highest IC50 first, then in falling order down to the smallest. Could you list the labels in the order requested?
Completion: e, b, d, a, c
(e: 1600 nM, b: 1020 nM, d: 240 nM, a: 110 nM, c: 22 nM)
